Quick reference: % binding vs no competitor of the listed items.
Molecular target: T1, HER2ECDHis (human, UniProt P04626 23-653, biotinylated in the cross-block ELISA (sites not given))
T1 construct: range 1-653; expressed in HEK-293F; also called soluble HER2; biotinylated HER2ECDHis
Assay: ELISA; competitor 025
Unit % implied. Number only.

- binder: "HuMab 153 (antibody, V domains shown) VH: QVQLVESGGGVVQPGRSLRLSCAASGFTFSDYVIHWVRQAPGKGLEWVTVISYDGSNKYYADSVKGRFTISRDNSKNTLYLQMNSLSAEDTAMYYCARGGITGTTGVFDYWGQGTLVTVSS VL: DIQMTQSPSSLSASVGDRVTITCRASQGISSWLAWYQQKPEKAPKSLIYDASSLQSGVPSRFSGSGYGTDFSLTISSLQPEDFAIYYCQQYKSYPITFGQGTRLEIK"
  output_unit: "%"
  % binding vs no competitor: 97

Q: Report measured % binding vs no competitor; entry is HuMab 129 (antibody, V domains shown) VH: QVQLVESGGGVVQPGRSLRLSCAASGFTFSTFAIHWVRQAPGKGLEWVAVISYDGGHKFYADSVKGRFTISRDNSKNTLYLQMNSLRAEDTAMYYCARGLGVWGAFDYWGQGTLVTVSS VL: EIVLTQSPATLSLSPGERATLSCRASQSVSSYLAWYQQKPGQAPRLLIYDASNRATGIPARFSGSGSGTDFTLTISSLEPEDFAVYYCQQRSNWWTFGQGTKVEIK
Result: 55

Q: Report measured % binding vs no competitor; entry is HuMab 084 (antibody, V domains shown, also called TH1014-084; PC1014-084) VH: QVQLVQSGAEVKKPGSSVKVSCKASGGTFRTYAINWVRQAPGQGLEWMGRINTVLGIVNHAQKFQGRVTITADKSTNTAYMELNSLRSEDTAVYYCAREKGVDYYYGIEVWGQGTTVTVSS VL: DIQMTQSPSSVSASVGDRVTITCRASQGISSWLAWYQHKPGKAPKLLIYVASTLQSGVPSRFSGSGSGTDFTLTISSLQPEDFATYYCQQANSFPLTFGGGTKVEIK
Result: 106
